- procedure_summary: differential killing of epithelial or mesenchymal cells, primary screen, imaging, PC-3E GFP, TEM4-18 mCherry, co-culture (AID 1345086);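 also: cells exposed to compound for 72 h before imaging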
- condition_description: imaging cell counts, measured here: mesenchymal TEM4-18 mCherry cell survival, at 1 µM
readout: normalised cell number
Lab note: write the figure by itself, no unit.

CO[C@@]1(NC(=O)C2SC(=C(C(N)=O)C(=O)O)S2)C(=O)N2C(C(=O)O)=C(CSc3nnnn3C)CSC21 (some centres undefined) ... 1.17
COc1ccc(-c2cc(=O)c3c(O)cc(OC)c(OC)c3o2)c(OC)c1 ... 0.99
CN[C@@H]1C(O)[C@@H](O[C@@H]2[C@@H](O)[C@H](O[C@H]3OC(CN)=CC[C@H]3N)[C@@H](N)C[C@H]2N)OC[C@]1(C)O (some centres undefined) ... 1.2
CC(=O)O[C@@H]1CC2C(C)(C)[C@H](O)C=C[C@]2(C)C2CC[C@@]3(C)[C@H](c4ccoc4)OC(=O)C4OC43[C@@]21C (some centres undefined) ... 1.19

Value of measured normalised cell number for the entry COc1cccc2c1C(=O)OCc1cc(C)cc(O)c1O2 : 1.05

Value of measured normalised cell number for the entry CN(C)CCCO[C@H]1[C@@H](C(O)CO)OC2OC(C)(C)O[C@@H]21 (some centres undefined) : 0.95

* * *

- procedure_summary: HepG2 cytotoxicity, primary screen, cytotoxicity control for P. falciparum antimalarial project, cell-based, ATP luminescence (AID 2303);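 also: 0% = DMSO wells and 100% = digitonin-killed cells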
- condition_description: HepG2 viability, 24-48 h, at 10 µM
The source made the active and inactive calls.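 The calls were made as follows: active = inhibition above 50%; inactive = the rest.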
# output must be one of active, inactive

CCCCCNc1ccnc2cc(Cl)ccc12 ... inactive
O=c1cc(NCCCNC2CCCc3c2cc(Cl)c(Cl)c3Cl)[nH]c2ccccc12 (stereo not given) ... inactive
O=C(NCCN1CCCCC1)c1cccc(Nc2nccc(Nc3ccc(Oc4ccccc4)cc3)n2)c1 ... active
FC(F)(F)Oc1ccc(-c2cnc3ccc(NCc4ccncc4)nn23)cc1 ... inactive

query: Please share the test call associated with c1ccc(C23N=C(Nc4nc5ccccc5[nH]4)NC2(c2ccccc2)NC(Nc2nc4ccccc4[nH]2)=N3)cc1 (stereo not given) .
result: inactive

* * *

- procedure_summary: sensitizers of A549 cells to miR-34 induction, primary screen, imaging, A549 dox-inducible miR-34, nuclei and caspase counts (AID 1347080)
- condition_description: A549 miR-34 inducible, Hoechst nuclei count, 48 h; stronger effect = lower value; cell number ratio, induced over uninduced
Values of fold change strictly less than 0.9 map to 1, and values of at least 0.9 map to -1.

Reference set, count: 3
CC(C)C1CCC(C(=O)N[C@@H](Cc2ccccc2)C(=O)O)CC1 (some centres undefined) ... 1
CCOc1cc(C(=O)Nc2ccc(Cl)c(-c3nc4ccccc4[nH]3)c2)cc(OCC)c1OCC ... -1
CC(=O)[C@H]1CCC2C3CCC4=CC(=O)CC[C@]4(C)C3CC[C@@]21C (some centres undefined) ... 1

query: Quick check: does CN(C)S(=O)(=O)c1ccc2c(c1)/C(=C\CCN1CCNCC1)c1ccccc1S2 have fold change under 0.9?
result: -1

query: Quick check: does CC1(O)CCOC(=O)C1 (centres undefined) have fold change under 0.9?
result: -1

query: Quick check: does Cc1c(C)c2c(c(C)c1O)CCC(C)(C(=O)O)O2 (centres undefined) have fold change under 0.9?
result: 1

query: Quick check: does COC1CCC(C(=O)c2ccc3nc4c(cc3c2)CCCO4)CC1 (centres undefined) have fold change under 0.9?
result: -1
